- System: M14
- ASSAY: NCI tumour cell line growth inhibition, 48 h
The source made the active and inactive calls. No stated cut-off is given here; in the data, active = GI50 up to about 1.1 µM and inactive = higher.
# Lookup of reported GI50 keyed by entry

Examples from the recorded data:
{"MOLECULE": "O=C(/C=C/c1ccccc1O)c1cccs1", "EXPERIMENTAL TARGET": "M14", "RESULT": "> 100 µM (inactive)"}
{"MOLECULE": "O=C1c2ccccc2C(=O)N1CCn1nc(-c2ccccc2)cc(-c2ccccc2)c1=O", "EXPERIMENTAL TARGET": "M14", "RESULT": "> 100 µM (inactive)"}
{"MOLECULE": "COC(=O)c1c(C)[nH]c2c1cc(O)c1nc(C)c(C)nc12", "EXPERIMENTAL TARGET": "M14", "RESULT": "> 100 µM (inactive)"}
{"MOLECULE": "Nc1ccc2nc3n(c2c1)C(c1c(F)cccc1F)SC3 (stereo not given)", "EXPERIMENTAL TARGET": "M14", "RESULT": "> 100 µM (inactive)"}
{"MOLECULE": "NNC1=Nc2ccc(Cl)cc2C(=S)N2CSCC12 (stereo not given)", "EXPERIMENTAL TARGET": "M14", "RESULT": "> 100 µM (inactive)"}
{"MOLECULE": "O=C1CCCn2c(nc3ccccc32)N1", "EXPERIMENTAL TARGET": "M14", "RESULT": "> 100 µM (inactive)"}
{"MOLECULE": "C=CCOCn1ccc(NC(=O)c2ccccc2)nc1=O", "EXPERIMENTAL TARGET": "M14", "RESULT": "> 100 µM (inactive)"}
{"MOLECULE": "CN1N=C(c2ccncc2)OC1c1cccc(F)c1 (stereo not given)", "EXPERIMENTAL TARGET": "M14", "RESULT": "> 100 µM (inactive)"}
{"MOLECULE": "O=C1C(=O)N(c2cc(Cl)ccc2Cl)C(=O)C(=O)C1c1nc2ccccc2o1", "EXPERIMENTAL TARGET": "M14", "RESULT": "> 91.8 µM (inactive)"}
{"MOLECULE": "C/C(=N\\N(C)C)C(CN1CCCCC1)C(c1ccccc1)c1c(O)c2ccccc2oc1=O (stereo not given)", "EXPERIMENTAL TARGET": "M14", "RESULT": "> 100 µM (inactive)"}

Write down GI50 measured for item c1ccc(C2C3=C(c4ccccc4CC3)N3c4cc5c(cc4=NC34CCCCC24)Nc2ccccc2N=5)cc1 (stereo not given) 6.61 µM (inactive)

Consider the molecule Cc1nn(-c2ccccc2)c(C)c1/C=N/NC(=O)c1sc(=S)n(-c2ccccc2)c1N . State its measured GI50. 4.92 µM (inactive)

Quick one: give measured GI50 for COc1ccccc1N1CCN(CCCN2C(C(=O)c3ccccc3)=C(O)c3c(C)cc(C)nc3S2(=O)=O)CC1 90.4 µM (inactive)

Specify GI50 for O=C(O)C1Cc2[nH]c3ccccc3c2C2CCCC12 (stereo not given) and stop. > 100 µM (inactive)

Supply reported GI50 belonging to this molecule: C/C(=C\c1ccccc1)C(O)C(=O)c1nc2ccc(Cl)cc2nc1O (stereo not given) > 100 µM (inactive)

----------
Reported values of GI50 for individual entries
- System: NCI/ADR-RES
- ASSAY: NCI tumour cell line growth inhibition, 48 h
Activity calls are given as the source filed them. No stated cut-off is given here; in the data, active = GI50 up to about 1.1 µM and inactive = higher.

{"COMPOUND": "CC1(COS(=O)(=O)OCC2(C)COS(=O)(=O)OC2)COS(=O)(=O)OC1", "EXPERIMENTAL TARGET": "NCI/ADR-RES", "GI50": "> 48.3 µM (inactive)"}
{"COMPOUND": "Nc1nc(-c2ccccc2)cc(-c2ccc(F)cc2)c1-c1ccc(Cl)cc1", "EXPERIMENTAL TARGET": "NCI/ADR-RES", "GI50": "> 100 µM (inactive)"}
{"COMPOUND": "Cc1cc2nc3c(N)nn(CCN(C)C)c3nc2cc1C", "EXPERIMENTAL TARGET": "NCI/ADR-RES", "GI50": "33.3 µM (inactive)"}
{"COMPOUND": "COc1cc(CCNC2=CC(=O)c3ncccc3C2=O)ccc1O", "EXPERIMENTAL TARGET": "NCI/ADR-RES", "GI50": "2.93 µM (inactive)"}

Here's the next entry for you.
Give NCI/ADR-RES GI50 for the following compound: CCOC(=O)CCC(C(=O)OCC)n1nnc2ccc(Nc3c(C)[n+]([O-])c4ccc(Cl)cc4[n+]3[O-])cc21 (stereo not given) 28.3 µM (inactive)

----------
Quick list: GI50 per entry.
- Test system: LXFL 529
- ASSAY: NCI tumour cell line growth inhibition, 48 h
Active and inactive are the calls of the source. Cut-off read from the data, not from the text of the source: active = GI50 up to about 1.1 µM and inactive = higher.

Use these answered entries as a reference point.
{"MOLECULE": "CCOC(=O)C(NC(=O)c1nc[nH]c1/N=N/N(C)C)C(C)C (centres undefined)", "GI50": "> 100 µM (inactive)"}
{"MOLECULE": "CS(=O)(=O)NNS(=O)(=O)c1cccc([N+](=O)[O-])c1", "GI50": "> 100 µM (inactive)"}
{"MOLECULE": "CCCCCCCCCCCC(=O)OCC1OC(n2cc(F)c(=O)[nH]c2=O)C(N)C(O)C1O (centres undefined)", "GI50": "> 100 µM (inactive)"}

Report the value of GI50 obtained on LXFL 529 for c1ccc(N2N=C(c3ccco3)CC2c2ccco2)cc1 (centres undefined) . 64.1 µM (inactive)

Name the value of GI50 reported for C1=CC(=NN=P(c2ccccc2)(c2ccccc2)c2ccccc2)C=C1 when tested on LXFL 529. > 100 µM (inactive)

Please indicate recorded GI50 of CN(NC1OC(CO)C(O)C(O)C1O)c1ccccc1 (centres undefined) measured with LXFL 529. > 100 µM (inactive)

Give LXFL 529 GI50 for the following molecule: S=c1nc2c(c[nH]1)C1c3ccccc3C2c2ccccc21 > 100 µM (inactive)

Under LXFL 529, report GI50 for BrC1=CCC23CC=C(Br)[C@H]4CC2(COC3)C[C@@H]1O4 (some centres undefined) 40.3 µM (inactive)

Report its GI50 with LXFL 529 as the test system: CCOC(=O)N1CCc2cc(OC)c(OC)cc2/C1=C\c1ccc(OC)c(OC)c1 29.5 µM (inactive)

Retrieve GI50 on LXFL 529; query C[C@]12CCC3c4ccc(OC(=O)c5ccccc5)cc4CC[C@H]3C1CC[C@@H]2OC(=O)C12OC1CCC2=O (some centres undefined) 1.91 µM (inactive)

State, for LXFL 529, measured GI50 of the molecule listed here: COCC1N=C(c2ccc(OC)c(OCc3ccccc3)c2OC)O[C@H]1c1ccccc1 (some centres undefined) 14.8 µM (inactive)

GET GI50 where system = LXFL 529 and item = O=c1c2cccnc2ncn1CCN1CCCC1 > 100 µM (inactive)

Under LXFL 529, report GI50 for CC1NOC(=O)C1/N=N/c1ccccc1Cl (centres undefined) 45.5 µM (inactive)

Give measured GI50 for Cc1cccc(NC(=O)/C=C/c2ccc(N(CCC#N)CCC#N)cc2C)c1 (LXFL 529). 23.4 µM (inactive)

----------
- Test system: OVCAR-4
- ASSAY: NCI tumour cell line growth inhibition, 48 h
Activity calls are given as the source filed them. Rule as the data show it: active = GI50 up to about 1.1 µM and inactive = higher.
PROPERTY NAME: GI50

{"MOLECULE": "CCCn1cc2c(SC)nc(SC)nc2n1", "PROPERTY NAME": "GI50", "RESULT": "> 100 µM (inactive)"}
{"MOLECULE": "O=c1[nH]nc(Cc2ccccc2)[nH]1", "PROPERTY NAME": "GI50", "RESULT": "> 100 µM (inactive)"}
{"MOLECULE": "Brc1cccc(C2(CCCC3(c4cccc(Br)n4)OCCO3)OCCO2)n1", "PROPERTY NAME": "GI50", "RESULT": "> 100 µM (inactive)"}

Write down GI50 measured for item O/N=C1/COC(C(F)(F)F)(C(F)(F)F)C1 > 100 µM (inactive)

Please indicate GI50 recorded for COc1ccc2cc1Oc1ccc(cc1)C[C@@H]1c3cc(c(OC)cc3CCN1C)Oc1c(OC)c(OC)cc3c1[C@H](C2)N(C)CC3 17.9 µM (inactive)

Given c1ccc(N2N=C(c3ccco3)CC2c2ccco2)cc1 (stereo unspecified) , respond with its GI50. > 100 µM (inactive)

Provide GI50 value for the following molecule: COC(=O)C1=C(C)N(NC(N)=O)C2(N)N(NC(N)=O)C(C)=C(C(=O)OC)C12C#N (stereo unspecified) > 100 µM (inactive)

Please give measured GI50 of the following entry: Cc1ccc(Nc2nc(=S)[nH]c3[nH]ncc23)cc1 90.4 µM (inactive)

Find the measured GI50 of COc1cc2c(c3c1c(=O)c1ccccc1n3C)C=CC1(CCCC1)O2 and report it. 12.2 µM (inactive)

Give the reported value of GI50 for this record: C1CCN2CC3CONC3C2C1 (stereo unspecified) > 100 µM (inactive)

Could you please provide reported GI50 for Cc1occc1/C(S)=N\c1ccc(Cl)c(COC(C)(C)C)c1 ? Thanks! 15.3 µM (inactive)
